The values you see were collected from PubChem BioAssay (NCI).

- Test system: SK-MEL-2 melanoma
- measurement-description: NCI-60 one-dose screen, 48 h (100 = growth as untreated, 0 = no growth, -100 = all killed)
- reported-conditions: 10 µM unless noted
This is part of a sample that, as a whole, favours compounds with a hit. Of some 83,000 tested, about 20% had one in any assay. The source made the active and inactive calls. How the source made its calls: active means growth percent below 10; inactive means the rest.
measurement-kind: growth

- Nc1nc(Cl)cc(Cl)n1: 96% (inactive)
- CCN(CC)CCCC(C)NC(=S)N/N=C(\C)c1ccccn1 (stereo not drawn): 83.6% (inactive)
- COc1cc(C(=O)NC(=S)NCc2ccncc2)cc(OC)c1OC: 89.5% (inactive)
- COC(=O)c1cccc([N+](=O)[O-])c1: 94.1% (inactive)
- O=C(Nc1ccc([N+](=O)[O-])cc1)C(=O)Nc1ccc([N+](=O)[O-])cc1: 97% (inactive)
- O=C(N/N=C\c1ccc(Cl)cc1Cl)c1ccncc1: 94.4% (inactive)
- CC(C)C(=O)OCCOc1ccc(C(C)(C)C)cc1: 92.3% (inactive)
- CCNCC(C)(C)O: 107% (inactive)
- Cc1ccc([N+](=O)[O-])c(C)n1: 120% (inactive)
- CC(=O)c1cccs1: 112% (inactive)
- C/C(O)=C(/C=N\C(=S)Nc1ccc(S(=O)(=O)Nc2nccs2)cc1)C(=O)Nc1ccccc1C: 115% (inactive)
- C=C(C)COc1ccc(C(C)(C)C)cc1: 101% (inactive)
- Cc1ccc(S(=O)(=O)Oc2ccc3sc4c(CO)ccc(NCCN(C)C)c4c(=O)c3c2)cc1: -86.6% [100 µM] (active)

====

- System: TK-10 renal
- measurement-description: NCI-60 one-dose screen, 48 h (100 = growth as untreated, 0 = no growth, -100 = all killed)
- reported-conditions: 10 µM unless noted
This is part of a sample that, as a whole, favours compounds with a hit. Of some 83,000 tested, about 20% had one in any assay. The source made the active and inactive calls. The calls were made as follows: active = growth percent below 10; inactive = the rest.
measurement-kind: growth

* O=CNCCc1ccccc1 | 92.4% (inactive)
* O=C(O)C1CCCN1C(=O)OCc1ccccc1 (configuration not stated) | 106% (inactive)
* CC(=O)[C@@]1(O)CC[C@H]2[C@@H]3CC[C@@H]4CC(=O)CC[C@]4(C)[C@H]3[C@@H](O)C[C@@]21C | 97.2% (inactive)
* c1ccc(Oc2c3ccccc3nc3ccccc23)cc1 | 57.6% (inactive)
* O=C(c1ccccc1O)N1CCCC1 | 96.5% (inactive)
* Clc1ccc(/C=C/c2ccccn2)cc1 | 99.3% (inactive)
* Oc1cc(O)c2c(c1)O[C@H](c1ccc(O)c(O)c1)[C@@H](O)C2 | 106% (inactive)
* CCOC(=O)c1ccc(NC(=O)Nc2nccs2)cc1 | 31.6% (inactive)
* O=C(Nc1c(Cl)cc(Cl)cc1Cl)ON=C1CCCCC1 | 100% (inactive)
* COc1c(CNC(=O)CCl)cc2[nH]c(C)cc2c1CNC(=O)CCl | 74.1% (inactive)
* CC(C)OCC(CCl)OC(=O)Nc1ccccc1 (configuration not stated) | 91.7% (inactive)
* COC1(OC)C2(Cl)C(Cl)=C(Cl)C1(Cl)C1COCC12 (configuration not stated) | 94.7% (inactive)

====

Below: a set of entries, each annotated with reported growth.
- Tested on: MDA-MB-435 melanoma
- measurement-description: NCI-60 one-dose screen, 48 h (100 = growth as untreated, 0 = no growth, -100 = all killed)
- reported-conditions: 10 µM unless noted
This is part of a sample that, as a whole, favours compounds with a hit. Of some 83,000 tested, about 20% had one in any assay. Active and inactive are the calls of the source. The calls were made as follows: active = growth percent below 10; inactive = the rest.
measurement-kind: growth

* C=CCC(O)C=C (stereo not drawn) | 111% (inactive)
* C=CC1=NC(C)(C)CC(C)O1 (stereo not drawn) | 94.7% (inactive)
* Nc1cc(N)ncn1 | 102% (inactive)
* CC(=O)NC(O)C(Cl)Cl (stereo not drawn) | 103% (inactive)
* Nc1cc(F)ccc1[N+](=O)[O-] | 111% (inactive)
* O=C1C=C[C@H](O)[C@@]2(CO)O[C@@H]12 | 77% (inactive)
* Cc1ccc[n+](CCC(N)=O)c1 | 101% (inactive)
* C/C(=N\Nc1ccc([N+](=O)[O-])cc1[N+](=O)[O-])c1ccc(Br)cc1 | 98.4% (inactive)
* Nc1c(Br)cc(O)c2c1C(=O)c1ccccc1C2=O | 98% (inactive)
* O=c1[nH]c(=O)c2cc(Cl)cc(Cl)c2[nH]1 | 113% (inactive)
* O=c1nc(Nc2cccc(Cl)c2)oc2cc(Cl)oc(=O)c12 | 85.8% (inactive)
* Cc1ccc(N)c(S(=O)(=O)O)c1 | 117% (inactive)
* S=CN1CCCCC1 | 103% (inactive)
* c1cc(CNCCNCc2ccncc2)ccn1 | 112% (inactive)
* COC1CC(OC(=O)c2ccc([N+](=O)[O-])cc2)C(COC(=O)c2ccc([N+](=O)[O-])cc2)O1 (stereo not drawn) | 97.7% (inactive)
* CCCCCC#CC(=O)O | 107% (inactive)
* CC(C)c1ccc(C(=O)OCCCl)cc1 | 95.9% (inactive)
* O=S(Cc1ccccc1)/C(=C/NC(=S)Nc1ccccc1)c1ccccc1 (stereo not drawn) | 104% (inactive)
* CC(=O)C1C(=O)C(=O)N(c2ccc(Cl)c(Cl)c2)C1=O (stereo not drawn) | 103% (inactive)
* COc1cc(N)c2ncccc2c1Cl | 111% (inactive)
* CCNCC(C)(C)O | 106% (inactive)
* O=C(CCCl)OCCOc1ccccc1 | 110% (inactive)
* O=C(O)C1CCCN1C(=O)OCc1ccccc1 (stereo not drawn) | 102% (inactive)
* Clc1ccc(/C=C/c2ccccn2)cc1 | 105% (inactive)
* N#CC1(O)CCCCC1 | 99.3% (inactive)
* O=C(NCc1ccco1)Nc1cccc2c(NC(=O)NCc3ccco3)cccc12 | 40% [100 µM] (inactive)
* O=C(Nc1c(Cl)cc(Cl)cc1Cl)ON=C1CCCCC1 | 107% (inactive)
* COc1cc(OC)c(NC(=O)C(Sc2nc(C)cc(C)c2C#N)c2ccccc2)cc1Cl (stereo not drawn) | 105% (inactive)
